Each recorded value in this set is attributed to patent US20140274782A1.

Target: T1, G9a and GLP (Homo sapiens, UniProt Q96KQ7+Q9H9B1)
T1 sequence (Q96KQ7 2-1210 limits assumed): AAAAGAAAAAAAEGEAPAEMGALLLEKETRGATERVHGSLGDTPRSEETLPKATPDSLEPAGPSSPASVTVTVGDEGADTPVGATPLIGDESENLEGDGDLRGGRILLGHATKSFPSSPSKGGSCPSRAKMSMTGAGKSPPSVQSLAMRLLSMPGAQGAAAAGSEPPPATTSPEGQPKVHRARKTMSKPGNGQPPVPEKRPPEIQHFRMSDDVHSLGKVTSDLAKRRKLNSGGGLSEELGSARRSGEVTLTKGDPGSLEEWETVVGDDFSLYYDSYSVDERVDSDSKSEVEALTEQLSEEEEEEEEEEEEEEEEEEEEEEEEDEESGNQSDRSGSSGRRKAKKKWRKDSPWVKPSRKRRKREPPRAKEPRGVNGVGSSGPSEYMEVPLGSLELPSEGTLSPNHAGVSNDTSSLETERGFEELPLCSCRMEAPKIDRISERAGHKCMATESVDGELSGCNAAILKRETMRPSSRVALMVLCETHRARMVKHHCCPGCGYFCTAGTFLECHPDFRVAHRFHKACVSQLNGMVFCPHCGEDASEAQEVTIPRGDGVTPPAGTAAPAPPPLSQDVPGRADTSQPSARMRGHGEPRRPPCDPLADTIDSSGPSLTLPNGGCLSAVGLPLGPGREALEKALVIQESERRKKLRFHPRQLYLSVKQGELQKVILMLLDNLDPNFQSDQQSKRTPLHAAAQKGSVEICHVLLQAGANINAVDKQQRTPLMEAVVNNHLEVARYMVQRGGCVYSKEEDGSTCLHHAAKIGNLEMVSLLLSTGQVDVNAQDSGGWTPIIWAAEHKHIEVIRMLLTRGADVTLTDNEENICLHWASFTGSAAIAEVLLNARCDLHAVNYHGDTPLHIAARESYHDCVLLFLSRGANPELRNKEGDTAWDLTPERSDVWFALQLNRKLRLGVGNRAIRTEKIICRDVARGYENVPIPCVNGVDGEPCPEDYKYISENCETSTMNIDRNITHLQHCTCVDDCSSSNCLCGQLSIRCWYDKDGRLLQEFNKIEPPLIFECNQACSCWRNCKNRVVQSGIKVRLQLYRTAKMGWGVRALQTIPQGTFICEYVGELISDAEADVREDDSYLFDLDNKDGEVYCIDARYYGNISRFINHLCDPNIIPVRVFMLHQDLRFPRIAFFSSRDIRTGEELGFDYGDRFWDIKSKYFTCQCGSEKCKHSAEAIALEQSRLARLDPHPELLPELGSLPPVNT
T1 sequence (Q9H9B1 2-1298 limits assumed): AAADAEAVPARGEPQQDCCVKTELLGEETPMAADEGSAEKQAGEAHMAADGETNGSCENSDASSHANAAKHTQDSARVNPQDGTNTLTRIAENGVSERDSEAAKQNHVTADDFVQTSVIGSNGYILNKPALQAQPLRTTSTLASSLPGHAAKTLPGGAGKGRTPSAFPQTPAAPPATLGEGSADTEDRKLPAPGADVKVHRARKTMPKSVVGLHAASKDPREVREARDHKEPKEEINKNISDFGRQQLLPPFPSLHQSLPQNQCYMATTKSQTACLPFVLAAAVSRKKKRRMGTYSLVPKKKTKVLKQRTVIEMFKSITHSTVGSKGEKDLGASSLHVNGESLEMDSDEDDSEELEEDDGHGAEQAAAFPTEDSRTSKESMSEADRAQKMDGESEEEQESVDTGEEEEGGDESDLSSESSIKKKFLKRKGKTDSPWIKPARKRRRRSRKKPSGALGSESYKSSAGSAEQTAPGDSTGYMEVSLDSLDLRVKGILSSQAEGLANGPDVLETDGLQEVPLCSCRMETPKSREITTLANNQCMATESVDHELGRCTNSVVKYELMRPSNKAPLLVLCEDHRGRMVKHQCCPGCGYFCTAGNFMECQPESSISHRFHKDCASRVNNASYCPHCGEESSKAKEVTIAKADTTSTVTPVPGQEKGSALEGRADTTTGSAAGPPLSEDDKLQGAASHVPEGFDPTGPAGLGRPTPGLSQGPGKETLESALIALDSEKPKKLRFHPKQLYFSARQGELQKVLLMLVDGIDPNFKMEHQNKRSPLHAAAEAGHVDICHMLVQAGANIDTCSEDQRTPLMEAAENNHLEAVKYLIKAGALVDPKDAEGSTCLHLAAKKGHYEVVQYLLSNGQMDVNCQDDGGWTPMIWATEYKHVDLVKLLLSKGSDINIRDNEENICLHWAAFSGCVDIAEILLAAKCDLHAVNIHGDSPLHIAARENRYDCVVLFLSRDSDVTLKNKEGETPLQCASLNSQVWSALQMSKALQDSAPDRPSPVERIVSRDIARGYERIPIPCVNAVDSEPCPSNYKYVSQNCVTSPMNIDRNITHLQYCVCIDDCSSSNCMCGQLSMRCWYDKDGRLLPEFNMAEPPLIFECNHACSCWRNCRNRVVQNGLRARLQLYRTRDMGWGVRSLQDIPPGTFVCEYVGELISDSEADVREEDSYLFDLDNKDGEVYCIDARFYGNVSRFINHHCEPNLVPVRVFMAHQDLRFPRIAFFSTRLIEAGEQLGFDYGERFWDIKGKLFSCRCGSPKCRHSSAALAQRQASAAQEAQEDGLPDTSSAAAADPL
Assay: Triple SILAC pull-down after UNC0638 treatment of 293T cells, DMSO/UNC0638 ratio of protein captured by 3×MBT;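 further: mass spectrometry (Q-Exactive) SILAC quantitation, DMSO/UNC0638 ratio computed after subtracting 3×MBTD355N mutant pull-down background, only proteins with at least twofold 3×MBT over mutant signal considered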
Assay type: cell-based
Parameters: endogenous in cells; host or cells: HEK 293T
Details: SILAC ratio DMSO/UNC0638 of protein pulled down with 3xMBT; UNC0638 in light SILAC media
readout.type: Relative to UNC0638 UNC Light (log base 2)
Report as a plain number; the unit log base 2 is understood.

Identify measured Relative to UNC0638 UNC Light corresponding to DENR (protein, UniProt O43583 2-198, looked up) Density-regulated protein: AADISESSGADCKGDPRNSAKLDADYPLRVLYCGVCSLPTEYCEYMPDVAKCRQWLEKNFPNEFAKLTVENSPKQEAGISEGQGTAGEEEEKKKQKRGGRGQIKQKKKTVPQKVTIAKIPRAKKKYVTRVCGLATFEIDLKEAQRFFAQKFSCGASVTGEDEIIIQGDFTDDIIDVIQEKWPEVDDDSIEDLGEVKK
0.20

Tell us which Relative to UNC0638 UNC Light value is on record for DUT (protein, UniProt P33316 70-252, looked up) Deoxyuridine 5'-triphosphate …: ASTVGAAGWKGELPKAGGSPAPGPETPAISPSKRARPAEVGGMQLRFARLSEHATAPTRGSARAAGYDLYSAYDYTIPPMEKAVVKTDIQIALPSGCYGRVAPRSGLAAKHFIDVGAGVIDEDYRGNVGVVLFNFGKEKFEVKKGDRIAQLICERIFYPEIEEVQALDDTERGSGGFGSTGKN
0.04
